# Procedure Summary: yeast display, Sf9 membrane polyspecificity reagent, FACS + sequencing; frameworks hold sequencing errors
Endpoint Label: polyreactivity (PSR sort gate)

Solved cases (8 shown):
# Item Sequence, polyreactivity (PSR sort gate)
measured = [
    ("QVQLVESGGGLVQAGGSLRLSCPASGRTFSRNAMGRYRQAPGKERELVATISRRGGSTNYADSVKGRFTISRDNAKNTVYLQMNSLIPEDTAVYYCAAGYRVRDDKVYGIVGAMDYWGQGTQVTVSS", "high polyreactivity"),
    ("QVQLVESGGGLVQAGGSLRLSCAASGRTFRGNAMGWDRQAPVKERELVAAITWGVGSTYYADSVKGRFTISRDNAKNTVYLQMNSLKPEDTAVYYCATRSYRGRDGFGYWGQGTQVTVSS", "high polyreactivity"),
    ("QVQLVESGGGLVQAGGSLRLSCAASGSTFGPNAMGWYRQAPGKERELVAAIRSNGGRTYYADSVKGRFTISRDNAKITVYLQMNSLKPEDSAVYYCADPHYPYDTPYGYWGQGTQVTVSS", "low polyreactivity"),
    ("QVQLVESGGGLVQAGGSLRLSCAASGNIFESYGMGWYRQAPGKERELVATINTSSGSTYYADSVKGRFTISRDNAKNSVYVQMNSLKPEDTAVYYCAAEWYPYPWGYGYWGQGTQVTVSS", "low polyreactivity"),
    ("QVQLVESGGGLVQAGGSLRLSCAASGITLFYYAMGWYRQAPGKERELVAVISASGGSTYYADSVKGRFTISRDNAKNTVYLQMNSLKPEDTAVYYCAAVAYWRSSSWYYYWGQGTQVTVSS", "high polyreactivity"),
    ("QVQLVESGGGLVQAGGSLRLSCAASGRIFSGYAMGWYRQAPGKERELVAAISQRGGSTTYADSVKGRFTISRDNAKNTVYLQMNSLKPEDTAVYYCAKRYTYPSGYDYWGQGTQVTVSS", "low polyreactivity"),
    ("QVQLVESGGGLVQAGVSLRLSCAASGFIYDHNAMGWYRQAPGKERELVAAITRSGGSTYYAYSVKGRFTISRDNAKNTVYLQMNSLKQEDTAVYYCNADAYGTPEFTSYAVRYDYWGQGTQVTVSS", "low polyreactivity"),
    ("QVQLVESGGGLVQAGGSLRLSCAASGRIFSSYAKGWYRQAPGKERELVAAISRGGGRTYYADSVKGRFTISRDNAKNTVYLQMNSLKPEDTAVYYCATVGRSAAYAFDYWGQGTQVTVSS", "high polyreactivity"),
]

Incoming: I'd like to know its polyreactivity (PSR sort gate). The sequence in question is QVQLVESGGGLVQAGGSLRLSFAASGFTISYYAMGWYRQAPGKERELVAAISQSGGSTYYADSVKGRFTISRDNAKNTVYLQMNSLKPEDTAVYYCAADTYYNLGNYWGQGTQVTVSS
Outgoing: high polyreactivity

Incoming: I'd like to know its polyreactivity (PSR sort gate). The sequence in question is QVQLVESGGGLVQAGGSLRLSCAASGSIFDQNAMGWYRQAPGKERELVAAITFSGVDTYYADSAKGRFTISRDNAKNTVYLQMNSLKPEDTAVYYCNADRGYNLVRRSQAVVEMDYWGQGTQVTVSS
Outgoing: low polyreactivity

Incoming: I'd like to know its polyreactivity (PSR sort gate). The sequence in question is QVQLVESGGGLVKAGGSLRLSCAASGFICVDYDRGGSRQAPGQERELVAAINWSGGSTDYADSVKGRFTISRDNAKNTVYLQMNSLKPEDTAVYYCGAEGQDCRFYWGLGTQVTVSS
Outgoing: low polyreactivity
